TARGET OR SYSTEM: Receptor-type tyrosine-protein kinase FLT3 (Homo sapiens, UniProt P36888, ITD)
Sequence (P36888 whole entry, looked up, stated change not applied): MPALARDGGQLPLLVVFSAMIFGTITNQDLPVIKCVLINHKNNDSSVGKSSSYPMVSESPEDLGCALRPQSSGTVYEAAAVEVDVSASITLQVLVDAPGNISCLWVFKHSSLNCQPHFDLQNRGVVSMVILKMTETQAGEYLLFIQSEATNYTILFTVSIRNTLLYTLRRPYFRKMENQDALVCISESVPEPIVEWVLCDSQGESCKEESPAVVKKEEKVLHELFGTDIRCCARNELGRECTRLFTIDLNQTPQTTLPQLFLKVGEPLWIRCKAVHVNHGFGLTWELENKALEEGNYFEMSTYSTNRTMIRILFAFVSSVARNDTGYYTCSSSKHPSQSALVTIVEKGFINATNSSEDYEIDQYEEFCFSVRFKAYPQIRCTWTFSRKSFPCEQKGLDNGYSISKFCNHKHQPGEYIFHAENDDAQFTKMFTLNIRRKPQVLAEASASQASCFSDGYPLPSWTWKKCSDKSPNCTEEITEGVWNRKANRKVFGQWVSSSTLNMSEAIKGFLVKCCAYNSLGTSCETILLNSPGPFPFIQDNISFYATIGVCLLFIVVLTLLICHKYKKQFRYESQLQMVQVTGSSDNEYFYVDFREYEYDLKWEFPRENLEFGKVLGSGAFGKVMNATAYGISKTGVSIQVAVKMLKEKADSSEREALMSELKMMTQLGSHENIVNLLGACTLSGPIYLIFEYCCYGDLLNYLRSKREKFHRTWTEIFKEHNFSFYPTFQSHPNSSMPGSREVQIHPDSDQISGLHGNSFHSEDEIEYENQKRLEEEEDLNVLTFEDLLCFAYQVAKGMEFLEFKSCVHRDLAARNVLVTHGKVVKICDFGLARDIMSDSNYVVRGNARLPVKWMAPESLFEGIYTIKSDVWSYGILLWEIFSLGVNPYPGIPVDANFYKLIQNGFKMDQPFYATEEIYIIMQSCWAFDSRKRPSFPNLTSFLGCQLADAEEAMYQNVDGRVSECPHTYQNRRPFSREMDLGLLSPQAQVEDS
PROTOCOL NOTES: Inhibition of FLT3-ITD mutant (unknown origin) using biotin-tagged TK substrate preincubated for 10 mins followed by substrate and ATP addition and measured after 40 mins by ADP-Glo Kinase Assay
// reported IC50 for each item listed
Use nM as the unit, but write only the number.

Recorded results for 4 molecules are shown here.
{"columns": ["MOLECULE", "IC50 [nM]"],
 "data": [
  ["CCc1nc(C(N)=O)c(Nc2ccc(N3CCC(NC(=O)C4CC5C=CC4C5)CC3)c(OC)c2)nc1NC1CCOCC1 (stereo not given)", 3.06],
  ["CCc1nc(C(N)=O)c(Nc2ccc(N3CCC(N4CCN(C(=O)C56C7C8C5C5C6C7C85C(=O)OC)CC4)CC3)c(OC)c2)nc1NC1CCOCC1 (stereo not given)", 2.12],
  ["CCc1nc(C(N)=O)c(Nc2ccc(N3CCN(C(=O)C4CC5C=CC4C5)CC3)c(OC)c2)nc1NC1CCOCC1 (stereo not given)", 1.29],
  ["CCc1nc(C(N)=O)c(Nc2ccc(N3CCC(N4CCN(C(=O)C5CC6C=CC5C6)CC4)CC3)c(OC)c2)nc1NC1CCOCC1 (stereo not given)", 4.83]
]}

Here's the next entry for you.
Query string: Param item = CCc1nc(C(N)=O)c(Nc2ccc(N3CCC(NC(=O)C45C6C7C4C4C5C6C74C(=O)OC)CC3)c(OC)c2)nc1NC1CCOCC1 (stereo not given) ; retrieve measured IC50.
Result string: 6.1

Hey, just so you know, these numbers are from ChEMBL document CHEMBL6120987.
